Give measured Ki for each item. Keep answers brief.
Molecular target: MC5-R (HEK-293 cells expressing MC5-R) (Homo sapiens)
Construct: expressed in transfected cells; host or cells: HEK-293
Sequence (P33032 whole entry): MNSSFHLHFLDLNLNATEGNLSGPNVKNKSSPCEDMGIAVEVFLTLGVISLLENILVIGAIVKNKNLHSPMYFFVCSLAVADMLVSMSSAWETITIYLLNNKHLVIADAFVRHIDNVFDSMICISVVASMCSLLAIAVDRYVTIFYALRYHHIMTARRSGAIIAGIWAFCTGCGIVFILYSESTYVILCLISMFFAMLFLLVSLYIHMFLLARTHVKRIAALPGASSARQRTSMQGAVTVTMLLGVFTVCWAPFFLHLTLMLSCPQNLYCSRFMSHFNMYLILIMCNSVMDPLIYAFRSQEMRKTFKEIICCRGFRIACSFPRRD
Assay: Ki determination by the method of Example 4, MC5-R
Type: cell-based
Output spec: scalar in nM, unitless text.

[in] Item: N=C(N)NCCCC1C(=O)N2C(Cc3ccc4ccccc4c3)CCC2N1C(=O)C(N)Cc1ccc(Cl)cc1Cl (stereo not drawn) Test system: MC5-R (HEK-293 cells expressing MC5-R) (Homo sapiens) Read-out: Ki Value: ?
[out] 1050

[in] Item: CCCCCCC(=O)NC(COCc1ccccc1)C(=O)NC(Cc1ccc(Cl)cc1)C(=O)N1C(CCCCN)C(=O)N2C(COc3ccc4ccccc4c3)CCC21 (stereo not drawn) Test system: MC5-R (HEK-293 cells expressing MC5-R) (Homo sapiens) Read-out: Ki Value: ?
[out] 116

[in] Item: N=C(N)NCCCC1C(=O)N2C(COc3ccc4ccccc4c3)CCC2N1CC(N)Cc1ccc(Cl)cc1Cl (stereo not drawn) Test system: MC5-R (HEK-293 cells expressing MC5-R) (Homo sapiens) Read-out: Ki Value: ?
[out] 689

###

Give measured inhibition at 1 µM for each item. Keep answers brief.
Target: hMC4-R (Homo sapiens)
Construct: expressed in transfected cells
Sequence (P32245 whole entry): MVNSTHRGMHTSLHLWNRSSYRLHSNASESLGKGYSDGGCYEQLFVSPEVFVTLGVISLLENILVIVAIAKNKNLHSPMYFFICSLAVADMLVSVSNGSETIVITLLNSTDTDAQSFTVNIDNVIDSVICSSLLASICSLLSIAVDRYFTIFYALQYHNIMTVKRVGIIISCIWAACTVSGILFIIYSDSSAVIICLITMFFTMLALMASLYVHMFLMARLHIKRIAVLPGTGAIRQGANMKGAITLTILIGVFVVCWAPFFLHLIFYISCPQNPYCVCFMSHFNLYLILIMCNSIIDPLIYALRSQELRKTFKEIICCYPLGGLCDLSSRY
Experiment: Competitive inhibition binding assay, 125I-NDP-α-MSH, MC4-R
Output spec: scalar in %, unitless text.

[in] Quick one: inhibition at 1 µM of N=C(N)NCCCC1C(=O)N2C(COc3ccc4ccccc4c3)CCC2N1C(=O)C(Cc1ccccc1Cl)NC(=O)C(N)COCc1ccccc1 (stereo not shown) ?
[out] 94

[in] Quick one: inhibition at 1 µM of N=C(N)NCCCC1C(=O)N2C(COc3ccc4ccccc4c3)CCC2N1C(=O)C(N)Cc1ccc(Cl)cc1Cl (stereo not shown) ?
[out] 98

[in] Quick one: inhibition at 1 µM of CCCCCCC(=O)NC(COCc1ccccc1)C(=O)NC(Cc1ccc(Cl)cc1)C(=O)N1C(CCCCN)C(=O)N2C(COc3ccc4ccccc4c3)CCC21 (stereo not shown) ?
[out] 98

[in] Quick one: inhibition at 1 µM of [2H]N[C@@H](Cc1ccccc1)C(=O)N1C2CC[C@H](COc3ccccc3)N2C(=O)[C@@H]1CCCCN (stereo partly shown) ?
[out] 0

[in] Quick one: inhibition at 1 µM of [2H]N[C@@H](Cc1cnc[nH]1)C(=O)N[C@@H](Cc1ccccc1)C(=O)N1C2CC[C@H](COc3ccc4ccccc4c3)N2C(=O)[C@@H]1CCCCN (stereo partly shown) ?
[out] 36

[in] Quick one: inhibition at 1 µM of NCCCCC1C(=O)N2C(COc3ccc4ccccc4c3)CCC2N1C(=O)C(Cc1ccc(Cl)cc1)NC(=O)C1Cc2ccccc2CN1 (stereo not shown) ?
[out] 94

[in] Quick one: inhibition at 1 µM of N=C(N)NCCCC1C(=O)N2C(Cc3ccc4ccccc4c3)CCC2N1C(=O)C(N)Cc1ccc(Cl)cc1Cl (stereo not shown) ?
[out] 93

[in] Quick one: inhibition at 1 µM of N=C(N)NCCCC1C(=O)N2C(COc3ccc4ccccc4c3)CCC2N1CC(N)Cc1ccc(Cl)cc1Cl (stereo not shown) ?
[out] 91

[in] Quick one: inhibition at 1 µM of N=C(N)NCCCC1C(=O)N2C(COc3ccc4ccccc4c3)CCC2N1C(=O)C(Cc1ccccc1Cl)NC(=O)C1Cc2ccccc2CN1 (stereo not shown) ?
[out] 98

[in] Quick one: inhibition at 1 µM of [2H]N[C@@H](Cc1ccccc1)C(=O)N1C2CC[C@H](COc3ccc4ccccc4c3)N2C(=O)[C@@H]1CCCCN (stereo partly shown) ?
[out] 0

###

Give measured log10 of Ki for each item. Keep answers brief.
Biological target: MC1-R (B-16 mouse melanoma cells) (Mus musculus, UniProt Q01727)
Construct: B-16 mouse melanoma cells (containing MC1-R); endogenous in cells; host or cells: B-16 mouse melanoma cells
Sequence (Q01727 whole entry): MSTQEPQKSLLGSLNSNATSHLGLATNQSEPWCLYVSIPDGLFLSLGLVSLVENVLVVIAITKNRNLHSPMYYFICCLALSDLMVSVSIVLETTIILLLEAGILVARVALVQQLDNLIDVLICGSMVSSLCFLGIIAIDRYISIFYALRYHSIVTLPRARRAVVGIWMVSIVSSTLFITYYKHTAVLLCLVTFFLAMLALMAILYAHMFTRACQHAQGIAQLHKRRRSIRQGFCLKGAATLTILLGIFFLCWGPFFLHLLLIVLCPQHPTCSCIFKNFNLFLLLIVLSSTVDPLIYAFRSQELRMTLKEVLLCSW
Experiment: Ki determination by the method of Example 4, MC1-R
Assay type: cell-based
Lab note - Ki converted to log10 from values in nM.

[in] Quick one: log10 of Ki of N=C(N)NCCCC1C(=O)N2C(COc3ccc4ccccc4c3)CCC2N1C(=O)C(Cc1ccccc1Cl)NC(=O)C1Cc2ccccc2CN1 (centres unmarked) [Example 29] ?
[out] 1.91

[in] Quick one: log10 of Ki of N=C(N)NCCCC1C(=O)N2C(Cc3ccc4ccccc4c3)CCC2N1C(=O)C(N)Cc1ccc(Cl)cc1Cl (centres unmarked) [Compound G] ?
[out] 1.80

[in] Quick one: log10 of Ki of N=C(N)NCCCC1C(=O)N2C(COc3ccc4ccccc4c3)CCC2N1C(=O)C(N)Cc1ccc(Cl)cc1Cl (centres unmarked) [Compound B] ?
[out] 2.16

[in] Quick one: log10 of Ki of N=C(N)NCCCC1C(=O)N2C(COc3ccc4ccccc4c3)CCC2N1C(=O)C(Cc1ccc(Cl)cc1Cl)NC(=O)C1CCC(c2ccccc2)N1 (centres unmarked) [Example 46] ?
[out] 3.02

[in] Quick one: log10 of Ki of NCCCCC1C(=O)N2C(COc3ccc4ccccc4c3)CCC2N1C(=O)C(Cc1ccc(Cl)cc1)NC(=O)C1Cc2ccccc2CN1 (centres unmarked) [Example 11] ?
[out] 1.00

[in] Quick one: log10 of Ki of N=C(N)NCCCC1C(=O)N2C(COc3ccc4ccccc4c3)CCC2N1CC(N)Cc1ccc(Cl)cc1Cl (centres unmarked) [Compound O] ?
[out] 2.93

[in] Quick one: log10 of Ki of N=C(N)NCCCC1C(=O)N2C(COc3ccc4ccccc4c3)CCC2N1C(=O)C(Cc1ccccc1Cl)NC(=O)C(N)COCc1ccccc1 (centres unmarked) [Example 30] ?
[out] 2.08

[in] Quick one: log10 of Ki of CCCCCCC(=O)NC(COCc1ccccc1)C(=O)NC(Cc1ccc(Cl)cc1)C(=O)N1C(CCCCN)C(=O)N2C(COc3ccc4ccccc4c3)CCC21 (centres unmarked) [Example 12] ?
[out] 1.11

###

Give measured Ki for each item. Keep answers brief.
Target: MC4-R (HEK-293 cells expressing MC4-R) (Homo sapiens)
Construct: expressed in transfected cells; host or cells: HEK-293
Sequence (P32245 whole entry): as the sequence (P32245 whole entry) above
Experiment: Ki determination by the method of Example 4, MC4-R
Assay type: cell-based
Output spec: scalar in nM, unitless text.

[in] Quick one: Ki of N=C(N)NCCCC1C(=O)N2C(COc3ccc4ccccc4c3)CCC2N1C(=O)C(Cc1ccccc1Cl)NC(=O)C1Cc2ccccc2CN1 (stereo not shown) [Example 29] ?
[out] 9

[in] Quick one: Ki of N=C(N)NCCCC1C(=O)N2C(COc3ccc4ccccc4c3)CCC2N1CC(N)Cc1ccc(Cl)cc1Cl (stereo not shown) [Compound O] ?
[out] 29

[in] Quick one: Ki of CCCCCCC(=O)NC(COCc1ccccc1)C(=O)NC(Cc1ccc(Cl)cc1)C(=O)N1C(CCCCN)C(=O)N2C(COc3ccc4ccccc4c3)CCC21 (stereo not shown) [Example 12] ?
[out] 22

[in] Quick one: Ki of N=C(N)NCCCC1C(=O)N2C(Cc3ccc4ccccc4c3)CCC2N1C(=O)C(N)Cc1ccc(Cl)cc1Cl (stereo not shown) [Compound G] ?
[out] 19

[in] Quick one: Ki of N=C(N)NCCCC1C(=O)N2C(COc3ccc4ccccc4c3)CCC2N1C(=O)C(N)Cc1ccc(Cl)cc1Cl (stereo not shown) [Compound B] ?
[out] 11

[in] Quick one: Ki of N=C(N)NCCCC1C(=O)N2C(COc3ccc4ccccc4c3)CCC2N1C(=O)C(Cc1ccccc1Cl)NC(=O)C(N)COCc1ccccc1 (stereo not shown) [Example 30] ?
[out] 41

[in] Quick one: Ki of NCCCCC1C(=O)N2C(COc3ccc4ccccc4c3)CCC2N1C(=O)C(Cc1ccc(Cl)cc1)NC(=O)C1Cc2ccccc2CN1 (stereo not shown) [Example 11] ?
[out] 24

###

Molecular target: hMC3-R (Homo sapiens, UniProt P41968)
Construct: expressed in transfected cells
Sequence (P41968 whole entry): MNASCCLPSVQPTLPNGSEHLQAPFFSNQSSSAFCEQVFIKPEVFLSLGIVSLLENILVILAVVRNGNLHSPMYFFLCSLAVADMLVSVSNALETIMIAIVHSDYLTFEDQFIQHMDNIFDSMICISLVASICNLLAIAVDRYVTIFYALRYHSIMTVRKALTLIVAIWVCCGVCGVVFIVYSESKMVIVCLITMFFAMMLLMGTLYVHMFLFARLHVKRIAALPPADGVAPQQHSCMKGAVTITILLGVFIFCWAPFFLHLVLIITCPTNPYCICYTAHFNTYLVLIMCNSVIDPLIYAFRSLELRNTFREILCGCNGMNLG
Assay: Competitive inhibition binding assay, 125I-NDP-α-MSH, MC3-R
reported_endpoint: inhibition at 1 µM (%)
Output spec: scalar in %, unitless text.

[in] Quick one: inhibition at 1 µM of N=C(N)NCCCC1C(=O)N2C(COc3ccc4ccccc4c3)CCC2N1C(=O)C(Cc1ccccc1Cl)NC(=O)C(N)COCc1ccccc1 (stereo not drawn) ?
[out] 29

[in] Quick one: inhibition at 1 µM of [2H]N[C@@H](Cc1cnc[nH]1)C(=O)N[C@@H](Cc1ccccc1)C(=O)N1C2CC[C@H](COc3ccc4ccccc4c3)N2C(=O)[C@@H]1CCCCN (stereo partly drawn) ?
[out] 0

[in] Quick one: inhibition at 1 µM of N=C(N)NCCCC1C(=O)N2C(Cc3ccc4ccccc4c3)CCC2N1C(=O)C(N)Cc1ccc(Cl)cc1Cl (stereo not drawn) ?
[out] 63

###

Biological target: hMC3-R (Homo sapiens)
Construct: expressed in transfected cells
Assay: Competitive inhibition binding assay, 125I-NDP-α-MSH, MC3-R
reported_endpoint: inhibition at 1 µM (%)
Output spec: scalar in %, unitless text.

[in] Quick one: inhibition at 1 µM of N=C(N)NCCCC1C(=O)N2C(COc3ccc4ccccc4c3)CCC2N1CC(N)Cc1ccc(Cl)cc1Cl (stereo not shown) ?
[out] 28

[in] Quick one: inhibition at 1 µM of [2H]N[C@@H](Cc1ccccc1)C(=O)N1C2CC[C@H](COc3ccc4ccccc4c3)N2C(=O)[C@@H]1CCCCN (stereo partly shown) ?
[out] 13

[in] Quick one: inhibition at 1 µM of N=C(N)NCCCC1C(=O)N2C(COc3ccc4ccccc4c3)CCC2N1C(=O)C(Cc1ccccc1Cl)NC(=O)C1Cc2ccccc2CN1 (stereo not shown) ?
[out] 42

[in] Quick one: inhibition at 1 µM of NCCCCC1C(=O)N2C(COc3ccc4ccccc4c3)CCC2N1C(=O)C(Cc1ccc(Cl)cc1)NC(=O)C1Cc2ccccc2CN1 (stereo not shown) ?
[out] 24

[in] Quick one: inhibition at 1 µM of [2H]N[C@@H](Cc1ccccc1)C(=O)N1C2CC[C@H](COc3ccccc3)N2C(=O)[C@@H]1CCCCN (stereo partly shown) ?
[out] 4

[in] Quick one: inhibition at 1 µM of CCCCCCC(=O)NC(COCc1ccccc1)C(=O)NC(Cc1ccc(Cl)cc1)C(=O)N1C(CCCCN)C(=O)N2C(COc3ccc4ccccc4c3)CCC21 (stereo not shown) ?
[out] 75

[in] Quick one: inhibition at 1 µM of N=C(N)NCCCC1C(=O)N2C(COc3ccc4ccccc4c3)CCC2N1C(=O)C(N)Cc1ccc(Cl)cc1Cl (stereo not shown) ?
[out] 75
